Experimental System: Amyloid-beta precursor protein (Homo sapiens) (UniProt P05067)
Sequence (P05067 whole entry): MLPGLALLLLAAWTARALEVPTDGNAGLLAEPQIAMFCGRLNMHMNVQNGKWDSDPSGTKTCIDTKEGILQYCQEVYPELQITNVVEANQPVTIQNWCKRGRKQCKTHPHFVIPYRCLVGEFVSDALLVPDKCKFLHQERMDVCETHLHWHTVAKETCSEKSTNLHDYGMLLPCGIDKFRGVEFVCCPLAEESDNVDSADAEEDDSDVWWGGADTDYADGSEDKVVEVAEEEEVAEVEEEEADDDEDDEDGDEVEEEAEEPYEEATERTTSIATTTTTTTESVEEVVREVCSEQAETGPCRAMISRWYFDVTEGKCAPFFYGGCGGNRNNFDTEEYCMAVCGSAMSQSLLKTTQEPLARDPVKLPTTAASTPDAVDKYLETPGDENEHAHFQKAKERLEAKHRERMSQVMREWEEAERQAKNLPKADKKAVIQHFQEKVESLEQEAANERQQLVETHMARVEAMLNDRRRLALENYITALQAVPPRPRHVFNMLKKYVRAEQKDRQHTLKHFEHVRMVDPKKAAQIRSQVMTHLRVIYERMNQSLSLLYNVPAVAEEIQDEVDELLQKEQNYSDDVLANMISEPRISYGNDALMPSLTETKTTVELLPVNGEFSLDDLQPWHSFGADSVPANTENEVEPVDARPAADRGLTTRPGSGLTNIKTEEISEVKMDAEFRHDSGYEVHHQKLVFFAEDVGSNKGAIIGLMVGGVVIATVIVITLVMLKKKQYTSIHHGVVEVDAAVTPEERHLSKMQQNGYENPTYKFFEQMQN
Test: Inhibition of amyloid beta (1 to 42) (unknown origin) assessed as reduction in peptide aggregation at 4 uM measured after 24 hrs by thioflavin-T fluorescence assay relative to control
Square brackets hold non-standard residues; d marks the D form. Peptide text beside a SMILES is read from it. Tle = CC(C)(C)[C@H](N)C(=O)O; Ac5c = NC1(C(=O)O)CCCC1; Abu = CC[C@H](N)C(=O)O; βAla = NCCC(=O)O
Experimental Endpoint: inhibition (%)

Solved cases below.
Compound	Experimental Endpoint	Value Reported
CC[C@H](NC(=O)[C@@H](N)CC)C(=O)N[C@H](C(=O)N[C@@H](C)C(=O)O)[C@@H](C)CC (H-[Abu][Abu]IA-OH)	inhibition	90.2
CC[C@H](C)[C@H](NC(=O)[C@@H](NC(=O)[C@@H](N)C(C)C)C(C)C)C(=O)N[C@@H](CC(N)=O)C(=O)O (H-VVIN-OH)	inhibition	59.9
CC[C@H](C)[C@H](NC(=O)[C@H](Cc1ccccc1)NC(=O)[C@@H](N)Cc1ccccc1)C(=O)N[C@@H](C)C(=O)O (H-FFIA-OH)	inhibition	97.2
CC[C@H](C)[C@H](NC(=O)[C@@H](NC(=O)[C@@H](N)C(C)C)C(C)(C)C)C(=O)N[C@@H](C)C(=O)O (H-V[Tle]IA-OH)	inhibition	100

(A) CC[C@H](C)[C@H](NC(=O)[C@@H](NC(=O)[C@@H](N)C(C)C)C(C)C)C(=O)NCCC(=O)O (H-VVI[βAla]-OH)
(B) CC[C@H](C)[C@H](NC(=O)C1(NC(=O)[C@@H](N)C(C)C)CCCC1)C(=O)N[C@@H](C)C(=O)O (H-V[Ac5c]IA-OH)
Hi, I'm comparing two records. Which one has the lower inhibition, A or B ? Mark your selection by writing its label.
A
